tested on: human PBMCs; test: cells; conditions: PBMC, 24 h, read-out: SB 11285 EC50(μM), IFN-β
Assay metric: EC50 (µM)
# value in µM; strip the unit string

Data request, read-out EC50, for NC1CC2CCC(C1)C2O (mixture of isomers) 0.3

----------
test system: human PBMCs; experiment: cells; settings: PBMC, 24 h, read-out: SB 11285 EC50(μM), IL-18
Assay metric: EC50 (µM)
# value in µM; strip the unit string

Data request, read-out EC50, for NC1CC2CCC(C1)C2O (mixture of isomers) [SB 11285] 0.7

----------
test system: human PBMCs; assay: cells; settings: PBMC, 24 h, read-out: SB 11285 EC50(μM), IFN-α
Assay metric: EC50 (µM)
# value in µM; strip the unit string

Data request, read-out EC50, for NC1CC2CCC(C1)C2O (mixture of isomers) 0.9
